Target: T1, apical domain of human CD71 (human, UniProt P02786 189-383, limits assumed)
T1 construct: domain: apical domain; Screen 4 panned on human apical domains, the ELISA text says only 'apical domain'
T1 sequence (P02786 189-383 limits assumed): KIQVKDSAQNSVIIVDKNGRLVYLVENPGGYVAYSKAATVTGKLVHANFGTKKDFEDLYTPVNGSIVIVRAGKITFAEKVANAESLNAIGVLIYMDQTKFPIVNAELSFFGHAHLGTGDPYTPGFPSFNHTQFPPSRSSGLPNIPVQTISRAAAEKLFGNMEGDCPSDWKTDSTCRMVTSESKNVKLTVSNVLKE
Assay: primary ELISA, RLU over HSA
quantity kind: Apical domain:HSA

Solved cases (5 shown):
binder: CD71-binding FN3 domain of SEQ ID NO: 467 (designed binder) MLPAPKNLVVSRVTEDSARLSWTAPDAAFDSFFIGYLEPQPPGEAIQLLVPGSERSYDLTGLKPGTEYNVTIQGVKGGFPSDPLVAYSTT
quantity kind: Apical domain:HSA
readout value: 45
--
binder: CD71-binding FN3 domain of SEQ ID NO: 544 (designed binder) MLPAPKNLVVSRVTEDSARLSWTAPDAAFDSFFIGYLEPQPPGEAIALLVPGSERSYDLTGLKPGTEYNVTIQGVKGGFPSHPLSASFTT
quantity kind: Apical domain:HSA
readout value: 243
--
binder: CD71-binding FN3 domain of SEQ ID NO: 448 (designed binder) MLPAPKNLVVSRVTEDSARLSWTAPDAAFDSFFIGYLEPQPPGEAIDLYVPGSERSYDLTGLKPGTEYNVTIQGVKGGFPSMPLYARFTT
quantity kind: Apical domain:HSA
readout value: 74
--
binder: CD71-binding FN3 domain of SEQ ID NO: 470 (designed binder) MLPAPKNLVVSRVTEDSARLSWTAPDAAFDSFFIGYLEPQPPGEAITLLVPGSERSYDLTGLKPGTEYNVTIQGVKGGFPSMPLSAIFTT
quantity kind: Apical domain:HSA
readout value: 152
--
binder: CD71-binding FN3 domain of SEQ ID NO: 466 (designed binder) MLPAPKNLVVSRVTEDSARLSWTAPDAAFDSFYIAYAEPRPDGEAIWLLVPGSERSYDLTGLKPGTEYSVLIHGVKGGLLSSPLSADFTT
quantity kind: Apical domain:HSA
readout value: 279

[P] CD71-binding FN3 domain of SEQ ID NO: 452 (designed binder) MLPAPKNLVVSRVTEDSARLSWTAPDAAFDSFFIGYLEPQPPGEAIHLQVPGSERSYDLTGLKPGTEYNVTIQGVKGGFPSIPLVAQFTT
[Q] CD71-binding FN3 domain of SEQ ID NO: 486 (designed binder) MLPAPENLVVSRVTEDSARLSWTALDAAFDSFFIGYLEPQPPGEAISLLVPGSERSYDLTGLKPGTEYNVTIQGVKGGIASEPLSAAFTT
Ask: Min Apical domain:HSA? P | Q Reply with the label of the item you choose.
Reply: P

[1] CD71-binding FN3 domain of SEQ ID NO: 478 (designed binder) MLPAPKNLVVSRVTEDSARLSWTAPDAAFDSFFIGYLEPQPPGEAIHLYVPGSERSYDLTGLKPGTEYNVTIQGVKGGFPSVPLIAKFTT
[2] CD71-binding FN3 domain of SEQ ID NO: 524 (designed binder) MLPAPKNLVVSRVTEDSARLSWTAPDAAFDSFFIGYLEPQPPGEAIHLWVPGSERSYDLTGLKPGTEYNVTIQGVKGGFPSMPLSAIFTT
Ask: Min Apical domain:HSA? 1 | 2 Reply with the label of the item you choose.
Reply: 1
